test system: velvetleaf (Abutilon theophrasti); assay: Test A pre-/postemergence plant response; type: in vivo; conditions: Preemergence, 500 g ai/ha; 0 to 100 scale, 0 = no effect, 100 = complete control
Could you please report measured Plant response rating, Velvetleaf for the items listed next?

Example molecules with recorded Plant response rating, Velvetleaf:
Cc1ccc(-n2c(-c3cccc(C)c3)ncc(C(=O)C3=C(O)CCCC3=O)c2=O)cc1 [Compound 211]; 60
CCc1ccc(-n2c(-c3cccc(Br)c3)ncc(C(=O)C3=C(O)CCCC3=O)c2=O)cc1 [Compound 175]; 50
CCOCCn1c(-c2cc(F)cc(F)c2)ncc(C(=O)C2=C(O)CCCC2=O)c1=O [Compound 182]; 100
CCn1c(-c2cccc(F)c2)ncc(C(=O)C2=C(O)C3CCC(C3)C2=O)c1=O (centres unmarked) [Compound 236]; 100
CCCn1c(-c2ccccc2)ncc(C(=O)C2=C(O)C3CCC(C3)C2=O)c1=O (centres unmarked) [Compound 226]; 100
Cc1cc(F)ccc1-n1c(-c2cccc(Cl)c2)ncc(C(=O)C2=C(O)CCCC2=O)c1=O [Compound 167]; 100

Parameter requested: Plant response rating, Velvetleaf. Apply to each item below.
1. Cc1ccc(F)cc1-n1c(-c2cccc(Br)c2)ncc(C(=O)C2=C(O)CCCC2=O)c1=O [Compound 154]
2. COc1cccc(-c2ncc(C(=O)C3=C(O)CCCC3=O)c(=O)n2C2CCCCC2)c1 [Compound 196]

// result
1. 80
2. 50

---

Could you please report measured Plant response rating, Crabgrass, Large for the items listed next?
test system: large crabgrass (Digitaria sanguinalis); assay: Test B pre-/postemergence plant response; type: in vivo; conditions: Preemergence, 31 g ai/ha; scale 0 to 100 (0 no effect, 100 complete control)
Numbers only.

Example compounds with recorded Plant response rating, Crabgrass, Large:
CC(C)Cc1ncc(C(=O)C2=C(O)CCCC2=O)c(=O)n1-c1ccccc1; 65
O=C1CCCC(O)=C1C(=O)c1cnc(-c2ccccc2)n(-c2ccccc2Br)c1=O; 0

Turning to the following compound.
// query Returns the measured Plant response rating, Crabgrass, Large for the input compound. Input: CCCc1ncc(C(=O)C2=C(O)CCCC2=O)c(=O)n1-c1ccccc1
// result 95

---

tested on: windgrass (Apera spica-venti); test: Test B postemergence plant response; assay type: in vivo; settings: 31 g ai/ha, postemergence; scale 0 to 100, 0 is no effect, 100 is complete control
Everything with Plant response rating, Windgrass lower than 40 is condition not met; everything else, including exactly 40, is condition met.

Below, 3 compounds whose answers are already recorded.
CCCc1ncc(C(=O)C2=C(O)CCCC2=O)c(=O)n1CCC; condition not met
Cc1ccc(F)c(-n2c(-c3ccccc3)ncc(C(=O)C3=C(O)CCCC3=O)c2=O)c1; condition met
COCCOCCn1c(-c2ccccc2)ncc(C(=O)C2=C(O)CCCC2=O)c1=O; condition not met

API: the following record is the query input.
// query Exam item: decide whether the reported Plant response rating, Windgrass for Cc1ccc(Cl)cc1-n1c(-c2ccccc2)ncc(C(=O)C2=C(O)CCCC2=O)c1=O is at least 40.
// result condition met

---

test system: umbrella sedge (Cyperus difformis); assay: Test B flooded paddy test; assay type: in vivo; conditions: Flood (flooded paddy test), 125 g ai/ha; scale 0 to 100, 0 is no effect, 100 is complete control; 13 to 15 days
Each record gets a class by Plant response rating, Sedge, Umbrella: low class (below 60), middle class (60 to below 80), high class (80 or more)

CCCn1c(-c2ccccc2)ncc(C(=O)C2=C(O)C3CCC(C3)C2=O)c1=O (stereo not drawn); low class

// query Note: place this compound into its band. Item: COCCCn1c(-c2cc(F)cc(F)c2)ncc(C(=O)C2=C(O)C3CCC(C3)C2=O)c1=O (stereo not drawn)
// result high class

// query Note: place this compound into its band. Item: CCCCCCn1c(-c2ccccc2)ncc(C(=O)C2=C(O)CCCC2=O)c1=O
// result high class

// query Note: place this compound into its band. Item: CCCn1c(-c2cccc(C)c2)ncc(C(=O)C2=C(O)CCCC2=O)c1=O
// result middle class

// query Note: place this compound into its band. Item: Cc1ccc(F)cc1-n1c(-c2cccc(Br)c2)ncc(C(=O)C2=C(O)CCCC2=O)c1=O
// result high class

// query Note: place this compound into its band. Item: COc1cccc(-c2ncc(C(=O)C3=C(O)CCCC3=O)c(=O)n2C2CCCCC2)c1
// result middle class

// query Note: place this compound into its band. Item: CCc1ccc(-n2c(-c3cccc(F)c3)ncc(C(=O)C3=C(O)CCCC3=O)c2=O)cc1
// result high class

// query Note: place this compound into its band. Item: Cc1ccccc1-n1c(-c2cccc(Br)c2)ncc(C(=O)C2=C(O)CCCC2=O)c1=O
// result middle class

// query Note: place this compound into its band. Item: Cc1ccc(Cl)cc1-n1c(-c2cccc(Cl)c2)ncc(C(=O)C2=C(O)CCCC2=O)c1=O
// result high class

// query Note: place this compound into its band. Item: O=C1CCCC(O)=C1C(=O)c1cnc(-c2cc(F)cc(F)c2)n(CC2CCCCC2)c1=O
// result middle class

---

Could you please report measured Plant response rating, Flood, Sedge, Umbrella for the items listed next?
system: umbrella sedge (Cyperus difformis); test: Test B flooded paddy test; type: in vivo; conditions: 250 g ai/ha; flooded paddy test; visual rating on 0 to 100 scale (0 no effect, 100 complete control) after 13 to 15 days
Numbers only.

Example molecules with recorded Plant response rating, Flood, Sedge, Umbrella:
O=C1CCCC(O)=C1C(=O)c1cnc(-c2cccc(Br)c2)n(-c2ccccc2)c1=O; 40
COCCn1c(-c2cccc(Br)c2)ncc(C(=O)C2=C(O)CCCC2=O)c1=O; 85
O=C1CCCC(O)=C1C(=O)c1cnc(-c2ccsc2)n(C2CCOCC2)c1=O; 90

// query Returns the measured Plant response rating, Flood, Sedge, Umbrella for the input molecule. Input: COCCOCCn1c(-c2ccccc2)ncc(C(=O)C2=C(O)CCCC2=O)c1=O
// result 100

---

test system: groundsel (common groundsel, Senecio vulgaris); assay: Test D pre-/postemergence plant response; assay type: in vivo; conditions: Postemergence, 125 g ai/ha; scale 0 to 100 (0 no effect, 100 complete control)
resultType: Plant response rating, Groundsel
Numbers only.

Example compounds with recorded Plant response rating, Groundsel:
CCCn1c(-c2ccccc2)ncc(C(=O)C2=C(O)C3CCC(C3)C2=O)c1=O (stereo not shown) [Compound 226]; 95
CCCCn1c(-c2ccccc2)ncc(C(=O)C2=C(O)C3CCC(C3)C2=O)c1=O (stereo not shown) [Compound 240]; 100
Cc1ccc(Cl)cc1-n1c(-c2ccccc2)ncc(C(=O)C2=C(O)CCCC2=O)c1=O [Compound 52]; 100
Cc1c(F)cccc1-n1c(-c2ccccc2)ncc(C(=O)C2=C(O)CCCC2=O)c1=O [Compound 47]; 100
Cc1ccc(F)c(-n2c(-c3ccccc3)ncc(C(=O)C3=C(O)CCCC3=O)c2=O)c1 [Compound 51]; 100
O=C1CCCC(O)=C1C(=O)c1cnc(C2CC2)n(-c2ccccc2)c1=O [Compound 87]; 100

Turning to the following compound.
// query Returns the measured Plant response rating, Groundsel for the input compound. Input: O=C1CCCC(O)=C1C(=O)c1cnc(-c2cccs2)n(-c2ccccc2)c1=O [Compound 66]
// result 80

---

system: pigweed (Amaranthus retroflexus); assay: Test B pre-/postemergence plant response; format: in vivo; conditions: Preemergence, 62 g ai/ha; scale 0 to 100, 0 no effect, 100 complete control
resultType: Plant response rating, Pigweed
One number for each entry.

Example compounds with recorded Plant response rating, Pigweed:
O=C1CCCC(O)=C1C(=O)c1cnc(-c2cccc(Br)c2)n(-c2ccccc2)c1=O [Compound 69]; 100
CCCCn1c(C2CC2)ncc(C(=O)C2=C(O)CCCC2=O)c1=O [Compound 193]; 100
Cc1cccc(-n2c(-c3ccccc3)ncc(C(=O)C3=C(O)CCCC3=O)c2=O)c1F [Compound 58]; 98

// query Returns the measured Plant response rating, Pigweed for the input compound. Input: O=C1CCCC(O)=C1C(=O)c1cnc(-c2cccs2)n(-c2ccccc2)c1=O [Compound 66]
// result 98

---

test system: giant foxtail (Setaria faberii); assay: Test B pre-/postemergence plant response; assay type: in vivo; conditions: Preemergence, 31 g ai/ha; scale 0 to 100 (0 no effect, 100 complete control)
resultType: Plant response rating, Foxtail, Giant
Give bare numbers.

Example compounds with recorded Plant response rating, Foxtail, Giant:
O=C1CCCC(O)=C1C(=O)c1cnc(-c2ccccc2)n(-c2ccccc2Br)c1=O [Compound 37]; 0
Cc1cccc(-n2c(-c3cccc(Cl)c3)ncc(C(=O)C3=C(O)CCCC3=O)c2=O)c1 [Compound 45]; 0
CCc1cccc(-n2c(-c3ccccc3)ncc(C(=O)C3=C(O)CCCC3=O)c2=O)c1 [Compound 220]; 0
O=C1CCCC(O)=C1C(=O)c1cnc(-c2cccc(Br)c2)n(-c2ccccc2)c1=O [Compound 69]; 5

Parameter requested: Plant response rating, Foxtail, Giant. Apply to each item below.
1. Cc1ccc(-n2c(-c3cccc(Cl)c3)ncc(C(=O)C3=C(O)CCCC3=O)c2=O)cc1 [Compound 39]
2. CCCc1ncc(C(=O)C2=C(O)CCCC2=O)c(=O)n1-c1ccccc1 [Compound 217]
3. O=C1CCCC(O)=C1C(=O)c1cnc(-c2cccs2)n(-c2ccccc2)c1=O [Compound 66]

// result
1. 0
2. 5
3. 15
